Source: ChEMBL document CHEMBL1130155

test: 50 mg/kg was administered orally in anesthetized rats and the concentration in plasma was determined after 180 minutes.; conditions: rat, po
MEASURED ENDPOINT: concentration at 3 h (ng/mL)
Just the number please, in ng/mL, no unit attached.

# input Write down concentration at 3 h measured for item `CC(=O)N1CCN(C(=O)[C@@H](Cc2cccc(C(=N)N)c2)NS(=O)(=O)c2ccc3ccccc3c2)CC1`
# output 300

* * *

assay: 1 mg/kg was administered intravenously in anesthetized rats and the concentration in plasma was determined after 180 minutes.; settings: rat, iv
MEASURED ENDPOINT: concentration at 3 h

# input Dear colleague, please send me the reported concentration at 3 h for `CC(=O)N1CCN(C(=O)[C@@H](Cc2cccc(C(=N)N)c2)NS(=O)(=O)c2ccc3ccccc3c2)CC1` when you can.
# output < 40 ng/mL

* * *

molecular target: UniProt P04070; experiment: Inhibitory activity against Activated protein C
Sequence (P04070 43-197 limits assumed): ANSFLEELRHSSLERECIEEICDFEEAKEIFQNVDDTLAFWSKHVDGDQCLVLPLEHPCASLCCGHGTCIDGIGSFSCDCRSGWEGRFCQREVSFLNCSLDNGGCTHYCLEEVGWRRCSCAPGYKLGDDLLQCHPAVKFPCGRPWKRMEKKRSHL
Sequence (P04070 212-461 limits assumed): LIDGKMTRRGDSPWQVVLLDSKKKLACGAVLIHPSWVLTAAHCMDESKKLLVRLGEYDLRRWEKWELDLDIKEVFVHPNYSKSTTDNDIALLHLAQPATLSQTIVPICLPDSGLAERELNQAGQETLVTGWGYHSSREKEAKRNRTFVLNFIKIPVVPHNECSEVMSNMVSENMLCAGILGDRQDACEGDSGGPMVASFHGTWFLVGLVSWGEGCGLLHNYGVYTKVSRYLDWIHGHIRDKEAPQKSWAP
MEASURED ENDPOINT: pKi
The scale used: pKi is minus the common logarithm of the concentration in molar units.

• CN(C)C(=O)N1CCN(C(=O)[C@@H](Cc2cccc(C(=N)N)c2)NS(=O)(=O)c2ccc3ccccc3c2)CC1 = 4.87

# input # return recorded pKi for entry `N=C(N)c1cccc(C[C@@H](NS(=O)(=O)c2ccc3ccccc3c2)C(=O)N2CCN(CCO)CC2)c1`
# output 4.41

# input Quickly give me recorded pKi for `N=C(N)c1cccc(C[C@@H](NS(=O)(=O)c2ccc3ccccc3c2)C(=O)N2CCN(C=O)CC2)c1`
# output 4.99

# input Consider the compound `CC(=O)N1CCN(C(=O)[C@@H](Cc2cccc(C(=N)N)c2)NS(=O)(=O)c2ccc3ccccc3c2)CC1` and give its recorded pKi.
# output 4.92

# input Fill in reported pKi for this entry: CC1(C)C2CCC1(CCS(=O)(=O)N[C@H](Cc1cccc(C(=N)N)c1)C(=O)N1CCN(S(C)(=O)=O)CC1)C(=O)C2 (stereo partly drawn)
# output 4.48

* * *

target: Urokinase-type plasminogen activator (Homo sapiens); test: Inhibitory activity against urokinase (UK )
MEASURED ENDPOINT: Ki (µM)
Write the value in µM as a bare number.

# input Report its Ki with Urokinase-type plasminogen activator (Homo sapiens) as the test system: `CN1CCN(C(=O)[C@@H](Cc2cccc(C(=N)N)c2)NS(=O)(=O)c2ccc3ccccc3c2)CC1`
# output 110

* * *

assay: 1 mg/kg was administered intravenously in anesthetized rats and the concentration in plasma was determined after 45 minutes.; settings: rat, iv
MEASURED ENDPOINT: concentration at 0.75 h

# input # return recorded concentration at 0.75 h for input `CC(=O)N1CCN(C(=O)[C@@H](Cc2cccc(C(=N)N)c2)NS(=O)(=O)c2ccc3ccccc3c2)CC1`
# output 170 ng/mL

* * *

test: 50 mg/kg was administered orally in anesthetized rats and the concentration in plasma was determined after 15 minutes.; assay type: ADME, organism-based; settings: rat, po, read-out: Activity
MEASURED ENDPOINT: concentration at 0.25 h
In your response, put the unit directly after the numeric value.

# input Could you please provide reported concentration at 0.25 h for `CC(=O)N1CCN(C(=O)[C@@H](Cc2cccc(C(=N)N)c2)NS(=O)(=O)c2ccc3ccccc3c2)CC1` ? Thanks!
# output 410 ng/mL

* * *

experiment: Concentration for doubling of thrombin time; format: functional, Homo sapiens
# pIC50 annotations
A value of pIC50 is the negative decimal logarithm of a concentration given in moles per litre.

Some solved cases for reference:
- N=C(N)c1cccc(C[C@@H](NS(=O)(=O)c2ccc3ccccc3c2)C(=O)N2CCN(CCO)CC2)c1: 6.85
- CS(=O)(=O)N1CCN(C(=O)[C@@H](Cc2cccc(C(=N)N)c2)NS(=O)(=O)c2ccc3ccccc3c2)CC1: 7.43
- N=C(N)c1cccc(C[C@@H](NS(=O)(=O)c2ccc3ccccc3c2)C(=O)N2CCN(C=O)CC2)c1: 7.20
- CN1CCN(C(=O)[C@@H](Cc2cccc(C(=N)N)c2)NS(=O)(=O)c2ccc3ccccc3c2)CC1: 6.66
- CC(=O)N1CCN(C(=O)[C@@H](Cc2cccc(C(=N)N)c2)NS(=O)(=O)c2ccc3ccccc3c2)CC1: 7.21
- CN(C)C(=O)N1CCN(C(=O)[C@@H](Cc2cccc(C(=N)N)c2)NS(=O)(=O)c2ccc3ccccc3c2)CC1: 7.38

Could you now look at the following molecule, please?
# input For the molecule CC1CNc2c(cccc2S(=O)(=O)N[C@@H](CCCNC(=N)N)C(=O)N2CCC(C)C[C@@H]2C(=O)O)C1 (single isomer, unassigned) , give its reported pIC50.
# output 7.21

* * *

assay: 1 mg/kg was administered intravenously in anesthetized rats and the concentration in plasma was determined after 60 minutes.; conditions: rat, iv
MEASURED ENDPOINT: concentration at 1 h (ng/mL)
Your answer is read as ng/mL, so omit the unit and give the number.

# input Retrieve concentration at 1 h measured for `CC(=O)N1CCN(C(=O)[C@@H](Cc2cccc(C(=N)N)c2)NS(=O)(=O)c2ccc3ccccc3c2)CC1` and print it.
# output 130

* * *

target: Plasminogen (Homo sapiens); test: Inhibitory activity against plasmin
MEASURED ENDPOINT: Ki (µM)
Form entry: value (µM) — number only.

Previously resolved entries follow.
• CCN(CC)C(=O)N1CCN(C(=O)C(Cc2cccc(C(=N)N)c2)NS(=O)(=O)c2ccc3ccccc3c2)CC1 (centres undefined) = 14
• CCCC(=O)N1CCN(C(=O)C(Cc2cccc(C(=N)N)c2)NS(=O)(=O)c2ccc3ccccc3c2)CC1 (centres undefined) = 8.6
• N=C(N)c1cccc(CC(NS(=O)(=O)c2ccc3ccccc3c2)C(=O)N2CCN(C(=O)c3ccccc3)CC2)c1 (centres undefined) = 7.2

Consider now this further compound.
# input Please indicate recorded Ki of COC(=O)N1CCN(C(=O)C(Cc2cccc(C(=N)N)c2)NS(=O)(=O)c2ccc3ccccc3c2)CC1 (centres undefined) measured with Plasminogen (Homo sapiens).
# output 2.8

* * *

Ki: recorded values
biological target: Plasminogen (Homo sapiens, UniProt P00747); experiment: Inhibitory activity against plasmin
Sequence (P00747 97-580 limits assumed): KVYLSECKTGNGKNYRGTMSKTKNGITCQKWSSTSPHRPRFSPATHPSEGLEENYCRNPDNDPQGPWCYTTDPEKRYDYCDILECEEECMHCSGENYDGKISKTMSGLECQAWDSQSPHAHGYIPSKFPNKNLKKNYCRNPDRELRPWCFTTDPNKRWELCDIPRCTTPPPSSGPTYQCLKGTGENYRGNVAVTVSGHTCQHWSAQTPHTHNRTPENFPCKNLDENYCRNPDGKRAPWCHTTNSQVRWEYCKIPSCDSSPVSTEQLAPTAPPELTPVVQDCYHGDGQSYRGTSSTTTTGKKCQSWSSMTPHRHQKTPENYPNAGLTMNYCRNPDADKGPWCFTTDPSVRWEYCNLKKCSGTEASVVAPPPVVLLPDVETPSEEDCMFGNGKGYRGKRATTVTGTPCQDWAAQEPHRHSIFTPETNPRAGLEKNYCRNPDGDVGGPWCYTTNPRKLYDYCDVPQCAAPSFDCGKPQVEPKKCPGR
Sequence (P00747 581-810 limits assumed): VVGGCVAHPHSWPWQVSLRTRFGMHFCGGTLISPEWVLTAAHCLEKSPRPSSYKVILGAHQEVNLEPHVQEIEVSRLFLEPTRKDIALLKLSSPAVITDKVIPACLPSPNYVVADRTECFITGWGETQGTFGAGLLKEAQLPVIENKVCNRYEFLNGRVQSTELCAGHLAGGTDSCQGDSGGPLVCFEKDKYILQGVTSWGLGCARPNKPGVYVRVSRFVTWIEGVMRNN

Reference set (3 entries):
* N=C(N)c1cccc(CC(NS(=O)(=O)c2ccc3ccccc3c2)C(=O)N2CCCCC2)c1 (centres undefined) | 7 µM
* CS(=O)(=O)N1CCN(C(=O)C(Cc2cccc(C(=N)N)c2)NS(=O)(=O)c2ccccc2)CC1 (centres undefined) | 29 µM
* N=C(N)c1cccc(CC(NS(=O)(=O)c2ccc3ccccc3c2)C(=O)N2CCNCC2)c1 (centres undefined) | 10.2 µM

Kindly consider the entry below.
# input Report Ki for CC1(C)C2CCC1(CCS(=O)(=O)NC(Cc1cccc(C(=N)N)c1)C(=O)N1CCN(S(C)(=O)=O)CC1)C(=O)C2 (stereo in doubt; 28)
# output 14 µM

* * *

target: Urokinase-type plasminogen activator (Homo sapiens, UniProt P00749); assay: Inhibitory activity against UK.
Parameter pKi: see the listing below.
In simple prose, pKi is minus the logarithm base ten of a concentration in moles per litre.

* CC(=O)N1CCN(C(=O)[C@@H](Cc2cccc(C(=N)N)c2)NS(=O)(=O)c2ccc3ccccc3c2)CC1 | 4.49
* CS(=O)(=O)N1CCN(C(=O)[C@@H](Cc2cccc(C(=N)N)c2)NS(=O)(=O)c2ccc3ccccc3c2)CC1 | 4.55
* N=C(N)c1cccc(C[C@@H](NS(=O)(=O)c2ccc3ccccc3c2)C(=O)N2CCN(C=O)CC2)c1 | 4.47
* CC1(C)C2CCC1(CCS(=O)(=O)N[C@H](Cc1cccc(C(=N)N)c1)C(=O)N1CCN(S(C)(=O)=O)CC1)C(=O)C2 (some centres not stated) | 4.31
* CN(C)C(=O)N1CCN(C(=O)[C@@H](Cc2cccc(C(=N)N)c2)NS(=O)(=O)c2ccc3ccccc3c2)CC1 | 4.55

# input Give the value of pKi reported for the following: `Cc1c(C)c(S(=O)(=O)N[C@H](Cc2cccc(C(=N)N)c2)C(=O)N2CCN(S(C)(=O)=O)CC2)c(C)c2c1OC(C)(C)CC2`
# output 4.24

# input Input `N=C(N)c1cccc(C[C@@H](NS(=O)(=O)c2ccc3ccccc3c2)C(=O)N2CCN(CCO)CC2)c1` , output reported pKi.
# output 3.85

* * *

assay: 50 mg/kg was administered orally in anesthetized rats and the concentration in plasma was determined after 60 minutes.; settings: rat, po
MEASURED ENDPOINT: concentration at 1 h (ng/mL)
Field format: number, assumed ng/mL, no unit text.

# input Using the record for `CC(=O)N1CCN(C(=O)[C@@H](Cc2cccc(C(=N)N)c2)NS(=O)(=O)c2ccc3ccccc3c2)CC1` , state its measured concentration at 1 h.
# output 380

* * *

target: Prothrombin (Bos taurus, UniProt P00735); assay: Inhibitory activity against thrombin.
MEASURED ENDPOINT: pKi
Please keep in mind that pKi is minus log10 of the molar concentration; only the number is needed.

# input Fetch value of pKi on Prothrombin (Bos taurus, UniProt P00735) for `CC1CCN(C(=O)[C@@H](Cc2cccc(C(=N)N)c2)NS(=O)(=O)c2ccc3ccccc3c2)CC1` .
# output 8.60
